The origin of these recorded values is the RNAGym collection of RNA variant scans (doi:10.1073/pnas.2313332121).

B1: TPR t1 (parent)
chain: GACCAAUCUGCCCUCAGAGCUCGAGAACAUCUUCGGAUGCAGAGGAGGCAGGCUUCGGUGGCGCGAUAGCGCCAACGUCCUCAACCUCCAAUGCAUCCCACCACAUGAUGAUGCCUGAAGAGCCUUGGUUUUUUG

- Variants of: B1
- TEST_PROTOCOL: polymerase ribozyme fitness, log enrichment relative to wild type (log ratio); higher = more active; in vitro selection for triplet polymerase activity
Entries and their measured polymerase ribozyme fitness (log ratio) follow.

Given G45U G110U , state its recorded polymerase ribozyme fitness (log ratio).
-2.75

Entry to check: G44U C53G G61C U81G C102U U132A
-3.53

Next entry: C3U C56G G58U G113U
-4.35
